Values were extracted from patent US8771716B2.

# procedure-details: Typical duration of action (period of therapeutic effect) of an immediate release dose, from labeling
# Assay type: in vivo
metric: ATDAIRD (average therapeutic duration of action of an effective immediate release dose)

Past entries and their recorded results:
| compound | result |
| --- | --- |
| CC(C(=O)O)c1cccc(C(=O)c2ccccc2)c1 (stereo not shown) [ketoprofen] | 5 h |
| COc1ccc2cc([C@H](C)C(=O)O)ccc2c1 [naproxen] | 10 h |

Let us move to another entry and its ATDAIRD (average therapeutic duration of action of an effective immediate release dose).
Request: What does the record list as ATDAIRD (average therapeutic duration of action of an effective immediate release dose) for CC(C)Cc1ccc(C(C)C(=O)O)cc1 (stereo not shown) [ibuprofen, 2-(4-isobutylphenyl)-propionic acid] ?
Response: 5 h
